- Tested on: L1210 leukemia ip in BDF1 mice, survival T/C
- TEST: NCI In Vivo Anticancer Drug Screen. Data for tumor model L1210 Leukemia (intraperitoneal) in B6D2F1 (BDF1) mice
- EXPERIMENTAL CONTEXT: endpoint: mean survival time; dose: 400.0 mg/kg/injection; schedule: Q04DX002 (ip); vehicle: Klucel (hydroxypropylcellulose) (HPC); higher = longer survival
Inconclusive results and toxic doses are left out.
QUANTITY: T/C

The examples below pair each entry with its known result.
T/C measured on "c1ccc([Si](c2ccccc2)(c2ccccc2)[Si](c2ccccc2)(c2ccccc2)c2ccccc2)cc1" = 87 % of control

T/C measured on "CN1C(=O)CN(CCN2CC(=O)N(C)C2=S)C1=S" = 90 % of control

New cases:
T/C measured on "CCCCCCCCCCCCCCCCOc1ccc(F)cc1F" = 96 % of control

T/C measured on "O=[N+]([O-])c1cccc(C=Nc2ccc(CCO)cc2)c1" = 107 % of control

T/C measured on "O=C(O)COc1ccccc1F" = 98 % of control

T/C measured on "NC(=O)c1nnn(Cc2ccccc2)c1C(N)=O" = 101 % of control

T/C measured on "COc1ccc(C(=O)/C=C2\C(=O)Nc3ccc(Br)cc32)cc1" = 93 % of control

T/C measured on "CCc1[nH]c(=O)nc2[nH]c3ccccc3c12" = 97 % of control
